Readings of TGI for the listed compounds
system: TK-10 renal; assay: NCI tumour cell line growth inhibition, 48 h

- CNCCC=C1c2ccccc2CCc2ccccc21: 28 µM

// query GET /values?readout=TGI&item= N#CC1=C(Cl)NC(Cl)=C(C#N)C1c1c(Cl)cccc1Cl
// result > 100 µM

// query GET /values?readout=TGI&item= C[C@H]1C(=O)CC[C@]2(C)CCC(C(C)(C)O)CC12O (stereo partly drawn)
// result > 100 µM

* * *

Readings of GI50 for the listed compounds
tested on: M14 melanoma

As a guide, the following entries are already answered.
* Cn1cnc([N+](=O)[O-])c1Sc1ncn[nH]1 | > 100 µM
* COc1ccc2nc(NC(=O)c3cccnc3Nc3cc(OC)c(OC)c(OC)c3)sc2c1 | 10.5 µM
* COc1cc(Cl)cc(-c2nn(-c3cccc(NC(=O)Nc4ccc(Cl)c(C(F)(F)F)c4)c3)cc2-c2ccncc2)c1 | 1.33 µM
* CN(C)CCN1C(=O)c2cccc3cccc(c23)C1=O | > 25 µM
* ClCc1ccc(Cn2cnc3c(Cl)nc(Cl)nc32)cc1 | 10.8 µM
* CCCNc1nc2ccccc2c2c1S(=O)(=O)c1ccc(Cl)cc1C2=O | 0.625 µM

// query GET /values?readout=GI50&item= COc1ccc(Nc2cc(C)nc(N3CCN(c4ccnc5cc(Cl)ccc45)CC3)n2)cc1
// result 1.75 µM

// query GET /values?readout=GI50&item= COc1cc2c3c(n(CCCN=[N+]=[N-])c(=O)c2cc1OC)-c1ccc(N(C)C)cc1C3=O
// result > 100 µM
